# Target System: voltage-gated sodium channel Nav1.7 (Homo sapiens (Human))
# Sequence (Q15858 whole entry): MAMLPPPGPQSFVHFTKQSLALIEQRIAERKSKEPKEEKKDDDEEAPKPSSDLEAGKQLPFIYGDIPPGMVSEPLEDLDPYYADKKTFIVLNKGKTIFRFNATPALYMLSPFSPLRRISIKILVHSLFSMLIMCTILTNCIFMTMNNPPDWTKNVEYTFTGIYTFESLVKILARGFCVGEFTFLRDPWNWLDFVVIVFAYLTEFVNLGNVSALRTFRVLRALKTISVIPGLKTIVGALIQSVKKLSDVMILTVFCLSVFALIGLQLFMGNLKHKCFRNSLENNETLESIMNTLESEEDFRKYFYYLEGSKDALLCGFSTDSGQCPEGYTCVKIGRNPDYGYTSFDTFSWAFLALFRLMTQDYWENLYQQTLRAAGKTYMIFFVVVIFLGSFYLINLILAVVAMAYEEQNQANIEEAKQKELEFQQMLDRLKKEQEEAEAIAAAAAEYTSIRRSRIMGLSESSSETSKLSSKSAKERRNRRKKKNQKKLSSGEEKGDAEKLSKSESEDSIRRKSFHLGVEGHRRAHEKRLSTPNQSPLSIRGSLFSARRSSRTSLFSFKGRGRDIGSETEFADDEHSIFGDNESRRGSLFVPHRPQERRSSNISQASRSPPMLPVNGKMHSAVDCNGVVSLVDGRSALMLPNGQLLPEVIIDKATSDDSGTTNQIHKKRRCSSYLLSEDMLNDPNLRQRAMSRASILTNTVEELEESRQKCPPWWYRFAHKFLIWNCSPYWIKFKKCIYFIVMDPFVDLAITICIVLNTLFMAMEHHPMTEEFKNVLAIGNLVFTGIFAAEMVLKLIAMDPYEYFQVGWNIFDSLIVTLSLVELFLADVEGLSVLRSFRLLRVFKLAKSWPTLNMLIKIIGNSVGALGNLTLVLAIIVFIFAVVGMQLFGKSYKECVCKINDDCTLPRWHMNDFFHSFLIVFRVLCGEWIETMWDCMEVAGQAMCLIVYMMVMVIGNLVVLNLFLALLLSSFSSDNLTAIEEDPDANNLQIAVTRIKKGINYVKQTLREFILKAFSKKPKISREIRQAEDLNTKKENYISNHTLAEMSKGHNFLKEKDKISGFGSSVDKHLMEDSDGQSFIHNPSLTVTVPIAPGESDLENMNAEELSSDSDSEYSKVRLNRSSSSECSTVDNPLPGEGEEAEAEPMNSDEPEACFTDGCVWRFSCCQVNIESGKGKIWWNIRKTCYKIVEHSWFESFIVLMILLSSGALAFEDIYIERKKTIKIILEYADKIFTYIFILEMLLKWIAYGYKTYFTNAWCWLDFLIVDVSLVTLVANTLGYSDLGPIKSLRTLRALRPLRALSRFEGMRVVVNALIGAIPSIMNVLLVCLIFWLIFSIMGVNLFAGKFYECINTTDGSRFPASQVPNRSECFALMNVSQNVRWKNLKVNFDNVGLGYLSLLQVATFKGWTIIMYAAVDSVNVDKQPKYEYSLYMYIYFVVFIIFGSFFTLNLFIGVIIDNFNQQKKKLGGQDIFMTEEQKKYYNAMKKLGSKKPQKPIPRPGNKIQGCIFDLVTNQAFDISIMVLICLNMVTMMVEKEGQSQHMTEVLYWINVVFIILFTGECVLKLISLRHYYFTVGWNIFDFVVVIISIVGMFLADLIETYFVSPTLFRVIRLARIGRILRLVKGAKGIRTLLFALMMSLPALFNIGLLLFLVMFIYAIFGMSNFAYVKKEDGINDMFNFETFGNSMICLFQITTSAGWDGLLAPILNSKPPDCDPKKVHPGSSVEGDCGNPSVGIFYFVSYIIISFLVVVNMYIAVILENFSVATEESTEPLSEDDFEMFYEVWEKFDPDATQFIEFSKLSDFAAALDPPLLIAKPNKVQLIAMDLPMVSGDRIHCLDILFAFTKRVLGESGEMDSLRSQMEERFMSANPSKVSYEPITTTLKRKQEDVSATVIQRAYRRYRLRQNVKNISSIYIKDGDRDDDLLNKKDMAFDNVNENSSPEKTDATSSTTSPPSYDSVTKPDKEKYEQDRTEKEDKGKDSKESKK
# Assay Name: Nav1.7 screening assay, IonWorks Quattro automated patch-clamp electrophysiology
# Assay type: cell-based
# Settings: stable CHO or HEK293 cell line expressing Nav1.7; percent block at peak 1 and peak 10; 5 minutes compound incubation; read-out: Nav 1.7 IC50
pIC50: −log10 of the molar value.
Metric Name: pIC50

For orientation, consider the following solved cases.
{"Smiles Code": "Cn1nc(NCCO)c2ccc(-c3ccccc3OCC(F)(F)C(F)(F)F)cc21", "Measured Number": 6.09}
{"Smiles Code": "Cn1nc(N)c2ccc(-c3cccc(F)c3OC(F)F)cc21", "Measured Number": 6.07}
{"Smiles Code": "Cn1nc(N)c2ccc(-c3c(F)cccc3OCC(F)(F)C(F)(F)F)cc21", "Measured Number": 6.25}
{"Smiles Code": "Cn1nc(N)c2ccc(-c3cccnc3OCC(F)(F)F)cc21", "Measured Number": 5.63}

I. Cn1nc(N)c2ccc(-c3cccc(F)c3OCC(F)F)cc21
II. Cn1nc(NCCCO)c2ccc(-c3ccccc3OCC(F)(F)C(F)(F)F)cc21
Lower pIC50: I or II ? Field: selected label. Fill in the label of the entry you choose. II

a. COCCn1nc(N)c2ccc(-c3ccccc3OC(F)(F)F)cc21
b. Nc1nn(CCCO)c2cc(-c3ccccc3OC(F)(F)F)ccc12
Lower pIC50: a or b ? Field: selected label. Fill in the label of the entry you choose. a

1. COc1cccc(-c2ccc3c(N)nn(C)c3c2)c1OCC(F)(F)F
2. CNc1nn(C)c2cc(-c3cccc(F)c3OCC(F)F)ccc12
3. NC(=O)Cn1nc(N)c2ccc(-c3cccc(F)c3OCC(F)(F)C(F)(F)F)cc21
Given 3 molecules, produce a descending ranking by pIC50. Use the labels to give the ranking in the order requested. 1, 2, 3
